# System: K562 cells
# Method Description: K562 cell viability, CellTiter-Glo luminescent assay
# Format: cell-based, Human
# Experimental Setup: Homo sapiens, 48 h, in presence of CFZ, read-out: IC50 of dasatinib in presence of CFZ
Property: IC50 (nM)
Express the result in nM but write the number alone.

In plain terms, Cc1nc(Nc2ncc(C(=O)Nc3c(C)cccc3Cl)s2)cc(N2CCN(CCO)CC2)n1 has a documented IC50 of 12.4
